reportedConditions: in ethanol, 323.15 K
Below, each entry is listed with its recorded solubility (mole fraction).
// return just the number, without any unit appended

O=C1c2ccccc2-c2ccccc21 | 0.292

We next turn to a different molecule, shown below.
Output measured solubility (mole fraction) for this item: c1ccc2c(c1)oc1ccccc12
0.197

* * *

reportedConditions: in ethanol, 283.15 K
recordedMetric: solubility (mole fraction)

c1ccc2c(c1)oc1ccccc12 | 0.0211

We next turn to a different compound, shown below.
Output measured solubility (mole fraction) for this item: O=C1c2ccccc2-c2ccccc21
0.0209

* * *

reportedConditions: in ethanol, 293.15 K
recordedMetric: solubility (mole fraction)

c1ccc2c(c1)oc1ccccc12 | 0.0322

We next turn to a different compound, shown below.
Output measured solubility (mole fraction) for this item: O=C1c2ccccc2-c2ccccc21
0.0301

* * *

reportedConditions: in toluene, 298.15 K
recordedMetric: solubility (mole fraction)
// return just the number, without any unit appended

c1ccc2c(c1)oc1ccccc12 | 0.266

We next turn to a different compound, shown below.
Output measured solubility (mole fraction) for this item: O=C1c2ccccc2-c2ccccc21
0.197

* * *

reportedConditions: in ethanol, 303.15 K
Below, each entry is listed with its recorded solubility (mole fraction).
// return just the number, without any unit appended

Output measured solubility (mole fraction) for this item: c1ccc2c(c1)oc1ccccc12
0.0489

Output measured solubility (mole fraction) for this item: O=C1c2ccccc2-c2ccccc21
0.0562

* * *

reportedConditions: in diisopropyl ether, 313.15 K
recordedMetric: solubility (mole fraction)
// return just the number, without any unit appended

c1ccc2c(c1)oc1ccccc12 | 0.284

We next turn to a different compound, shown below.
Output measured solubility (mole fraction) for this item: O=C1c2ccccc2-c2ccccc21
0.108

* * *

Below, each entry is listed with its recorded solubility (mole fraction).
reportedConditions: in n-butanol, 313.15 K
// return just the number, without any unit appended

c1ccc2c(c1)oc1ccccc12 | 0.107

We next turn to a different molecule, shown below.
Output measured solubility (mole fraction) for this item: O=C1c2ccccc2-c2ccccc21
0.126

* * *

reportedConditions: in ethanol, 318.15 K
recordedMetric: solubility (mole fraction)
// return just the number, without any unit appended

c1ccc2c(c1)oc1ccccc12 | 0.134

We next turn to a different molecule, shown below.
Output measured solubility (mole fraction) for this item: O=C1c2ccccc2-c2ccccc21
0.207

* * *

reportedConditions: in n-butanol, 288.15 K
recordedMetric: solubility (mole fraction)
// return just the number, without any unit appended

O=C1c2ccccc2-c2ccccc21 | 0.0321

Output measured solubility (mole fraction) for this item: c1ccc2c(c1)oc1ccccc12
0.0326

* * *

reportedConditions: in ethanol, 298.15 K
Below, each entry is listed with its recorded solubility (mole fraction).
// return just the number, without any unit appended

Output measured solubility (mole fraction) for this item: c1ccc2c(c1)oc1ccccc12
0.0414

Output measured solubility (mole fraction) for this item: O=C1c2ccccc2-c2ccccc21
0.043

* * *

Below, each entry is listed with its recorded solubility (mole fraction).
reportedConditions: in ethyl acetate, 323.15 K
// return just the number, without any unit appended

O=C1c2ccccc2-c2ccccc21 | 0.465

Output measured solubility (mole fraction) for this item: c1ccc2c(c1)oc1ccccc12
0.502

* * *

reportedConditions: in n-butanol, 323.15 K
Below, each entry is listed with its recorded solubility (mole fraction).
// return just the number, without any unit appended

O=C1c2ccccc2-c2ccccc21 | 0.236

We next turn to a different molecule, shown below.
Output measured solubility (mole fraction) for this item: c1ccc2c(c1)oc1ccccc12
0.23

* * *

Below, each entry is listed with its recorded solubility (mole fraction).
reportedConditions: in diisopropyl ether, 333.15 K

c1ccc2c(c1)oc1ccccc12 | 0.58

We next turn to a different molecule, shown below.
Output measured solubility (mole fraction) for this item: O=C1c2ccccc2-c2ccccc21
0.309

* * *

reportedConditions: in toluene, 288.15 K
Below, each entry is listed with its recorded solubility (mole fraction).
// return just the number, without any unit appended

O=C1c2ccccc2-c2ccccc21 | 0.142

We next turn to a different compound, shown below.
Output measured solubility (mole fraction) for this item: c1ccc2c(c1)oc1ccccc12
0.185

* * *

reportedConditions: in toluene, 328.15 K
Below, each entry is listed with its recorded solubility (mole fraction).
// return just the number, without any unit appended

O=C1c2ccccc2-c2ccccc21 | 0.485

Output measured solubility (mole fraction) for this item: c1ccc2c(c1)oc1ccccc12
0.582

* * *

reportedConditions: in ethyl acetate, 298.15 K
recordedMetric: solubility (mole fraction)
// return just the number, without any unit appended

c1ccc2c(c1)oc1ccccc12 | 0.232

We next turn to a different compound, shown below.
Output measured solubility (mole fraction) for this item: O=C1c2ccccc2-c2ccccc21
0.221

* * *

reportedConditions: in tetrachloromethane, 313.15 K
recordedMetric: solubility (mole fraction)
// return just the number, without any unit appended

Output measured solubility (mole fraction) for this item: c1ccc2c(c1)oc1ccccc12
0.354

Output measured solubility (mole fraction) for this item: O=C1c2ccccc2-c2ccccc21
0.347

* * *

reportedConditions: in diisopropyl ether, 283.15 K
Below, each entry is listed with its recorded solubility (mole fraction).
// return just the number, without any unit appended

O=C1c2ccccc2-c2ccccc21 | 0.0297

We next turn to a different compound, shown below.
Output measured solubility (mole fraction) for this item: c1ccc2c(c1)oc1ccccc12
0.0838

* * *

Below, each entry is listed with its recorded solubility (mole fraction).
reportedConditions: in ethanol, 288.15 K
// return just the number, without any unit appended

c1ccc2c(c1)oc1ccccc12 | 0.0271

Output measured solubility (mole fraction) for this item: O=C1c2ccccc2-c2ccccc21
0.0241

Measured values drawn from BigSolDB 2.1 for this set.
